# test target: LXRα (Homo sapiens, UniProt Q13133)
# Construct: gene NR1H3
# Sequence (Q13133 whole entry): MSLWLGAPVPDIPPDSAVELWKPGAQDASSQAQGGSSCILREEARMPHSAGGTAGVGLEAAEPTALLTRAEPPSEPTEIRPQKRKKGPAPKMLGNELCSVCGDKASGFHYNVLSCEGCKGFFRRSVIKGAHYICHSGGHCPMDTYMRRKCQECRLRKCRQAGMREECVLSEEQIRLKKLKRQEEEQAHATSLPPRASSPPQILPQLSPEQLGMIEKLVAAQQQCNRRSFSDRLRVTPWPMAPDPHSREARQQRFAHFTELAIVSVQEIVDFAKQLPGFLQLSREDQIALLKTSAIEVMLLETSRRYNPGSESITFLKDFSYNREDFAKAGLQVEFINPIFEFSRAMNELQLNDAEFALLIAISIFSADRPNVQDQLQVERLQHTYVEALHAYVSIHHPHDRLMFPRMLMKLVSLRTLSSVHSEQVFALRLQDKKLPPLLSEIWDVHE
# assay procedure: intrinsic aromatic fluorescence quenching; displacement Ki […]; LXRE reporter activation
# Type: binding
value kind: pKd
The read-out pKd is expressed as -log10 of concentration in moles per litre.

pKd measured on `CCCCCCCCCCCC(=O)O` = 7.96

Source listed as paper PMC5282955.
